target.or.system: Hck (UniProt P08631)
Sequence (P08631 whole entry, looked up): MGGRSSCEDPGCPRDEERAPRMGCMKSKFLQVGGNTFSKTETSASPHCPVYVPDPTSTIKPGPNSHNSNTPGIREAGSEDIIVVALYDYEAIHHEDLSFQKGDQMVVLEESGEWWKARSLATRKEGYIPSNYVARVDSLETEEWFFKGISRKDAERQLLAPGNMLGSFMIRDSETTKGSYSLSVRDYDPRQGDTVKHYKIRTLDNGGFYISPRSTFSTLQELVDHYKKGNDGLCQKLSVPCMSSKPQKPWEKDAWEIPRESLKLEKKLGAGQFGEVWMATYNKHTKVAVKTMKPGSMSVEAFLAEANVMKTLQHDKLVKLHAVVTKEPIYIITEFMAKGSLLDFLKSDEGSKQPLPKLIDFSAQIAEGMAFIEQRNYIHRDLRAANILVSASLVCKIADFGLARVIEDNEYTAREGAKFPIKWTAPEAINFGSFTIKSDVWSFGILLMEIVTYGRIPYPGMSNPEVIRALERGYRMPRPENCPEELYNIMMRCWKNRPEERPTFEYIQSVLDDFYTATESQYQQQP
assay.text: phosphorylation enrichment, bacterial display (enrichment ratio); higher = better substrate or ligand; peptides without Tyr show the background;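 further: 11-residue human phosphosite peptides and single-mutation variants displayed on the E. coli surface, counted by deep sequencing, each peptide's frequency after selection divided by its frequency in the unselected input library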;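 further: frequency after pTyr selection over input frequency; kinase dosed for 20-30% of maximal phosphorylation in three min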
Assignment: determine reported phosphorylation enrichment for the given sequences.

Req: Tell me its phosphorylation enrichment given VLALWYFFLTN [ZDHHC23_Y127_H132N_YF] as the entry.
Resp: 0.62

Req: Give me measured phosphorylation enrichment, please, for this sequence: PARLEYYENEK [IRS1_Y46]
Resp: 0.48

Req: Supply recorded phosphorylation enrichment for LNAGAYSKVVQ [PPT1_Y172] here.
Resp: 0.357

Req: Specify measured phosphorylation enrichment for ASLEAYCKHKY [RXRA_Y403] .
Resp: 0.455

Req: Identify phosphorylation enrichment associated with the sequence TRSFDYMEGGD [FGF7_Y58_YF]
Resp: 0.599

Req: For VEDDMYRKTCT [XPA_Y257_L252V] , write its phosphorylation enrichment.
Resp: 0.626

Req: Input VDLSKYITTIA [FAS_Y232] , output reported phosphorylation enrichment.
Resp: 0.407

Req: For the sequence ISSLDYISKTK [VAV3_Y294] , give its reported phosphorylation enrichment.
Resp: 0.447

Req: Note phosphorylation enrichment for the sequence shown: LIDGYYRLTED [JAK2_Y373_A377E]
Resp: 0.778

Req: For the sequence VNKIYYPDFIV [LIG3_Y768] , give its measured phosphorylation enrichment value.
Resp: 1.25

Req: In one line, give reported phosphorylation enrichment of the entry TRNRDYDDIDD [TTYH2_Y424] .
Resp: 0.527

Req: Indicate the recorded phosphorylation enrichment value for this sequence: GSSKIYFLHAD [TLR5_Y108_P112A]
Resp: 0.712

Req: State its phosphorylation enrichment: ELPEKYSQNIY [PKP2_Y626]
Resp: 0.905

Req: State, in one line, measured phosphorylation enrichment of SSSPTYLDLPF [GLI3_Y168_P169L]
Resp: 2.25

Req: Identify phosphorylation enrichment associated with the sequence AWVARYIFKRL [LPCAT3_Y348]
Resp: 0.48

Req: Using the record for RGRSTYFWPRP [GAGE12J_Y9_YF] , state its measured phosphorylation enrichment.
Resp: 0.636

Req: Supply phosphorylation enrichment value. Item: SKNSKYNAGST [PSEN1_Y315_E318G]
Resp: 0.442

Req: Check the records and state phosphorylation enrichment for EHLNRYISDTF [TTLL10_Y446]
Resp: 0.51

Req: Give the measured phosphorylation enrichment for RSAGKYDVFLI [MECP2_Y120_YF]
Resp: 0.714

Req: For the sequence RKETFYTLSCR [GUCY2C_Y681] , give its reported phosphorylation enrichment.
Resp: 1.03

Req: Read off the recorded phosphorylation enrichment for DSSIRYLQEIH [FGG_Y135_Y140H]
Resp: 0.356

Req: Please indicate phosphorylation enrichment recorded for HLVSEYQQYQD [TUBB3_Y422_D417H]
Resp: 1.21

Req: // Input: RRIHSYRRHLW [VHL_Y112_G114R] . Output its phosphorylation enrichment only.
Resp: 0.746

Req: Quick one: give measured phosphorylation enrichment for QITQVCGFYDE [PPP2CA_Y127_Y127C]
Resp: 0.865

Req: Please report phosphorylation enrichment for the following sequence: KGIQLYDTPFE [SHB_Y297_YF]
Resp: 1.73

Req: Report phosphorylation enrichment, nothing else, for this sequence: DPHQQYYIAMD [TBX15_Y159]
Resp: 0.669

Req: Provide measured phosphorylation enrichment value, entry: GYSRHCEDGYP [CTNND1_Y217_Y217C]
Resp: 0.5

Req: Kindly indicate its recorded phosphorylation enrichment. Item: MSYDRYMAICH [OR2A5_Y123]
Resp: 0.646

Req: Note down phosphorylation enrichment recorded for DRLASYQDKVR [KRT12_Y139_L140Q]
Resp: 0.417

Req: State its phosphorylation enrichment for this sequence: SLGSPYGQPPR [PDLIM4_Y137]
Resp: 0.365
